Where these numbers come from: PubChem BioAssay (EPA / NIEHS)

Target: human Opioid Receptor Delta 1 (Opiate D1), OPRD1 (gene 4985)
Assay: NVS_GPCR_hOpiate_D1: NovaScreen (NVS) G Protein-Coupled Receptor Assay for human Opioid Receptor Delta 1 (Opiate D1) (AID 2283280)
Procedure: NVS_GPCR_hOpiate_D1 is a biochemical, single-readout assay that uses extracted gene-proteins from CHO in a cell-free assay. Measurements were taken 1 hour after chemical dosing in a 96-well plate.NVS_GPCR_hOpiate_D1 is one of one assay component(s) measured or calculated from the NVS_GPCR_hOpiate_D1 assay. […] This assay endpoint, NVS_GPCR_hOpiate_D1, was analyzed in the positive analysis fitting direction relative to DMSO as the negative control and baseline of activity. […]
Results filed as inconclusive are left out. Calls of active or inactive are those of the source. The calls were made as follows: active = hit-call score of the fitted dose curve at least 0.9, where 1 is the maximum; inconclusive = response in the unintended direction; inactive = score below 0.9.
Lab note: assign the record to one of active, inactive

input: Outcome? Cc1oc(-c2ccccc2)nc1CCOc1ccc(C[C@H](Nc2ccccc2C(=O)c2ccccc2)C(=O)O)cc1
output: active

input: Check the results log: what was the call for CCCOc1sc(C(=O)N2CCC(c3cc(CN)ccc3F)CC2)c(C)c1Br ?
output: active

input: Check the results log: what was the call for CCc1nn(C2CCCCC2)c2cc(C3(C#N)CCC(C(=O)O)CC3)ccc12 (stereo not drawn) ?
output: inactive

input: Answer briefly: the call reported for CC[C@H](C)[C@@H](C(=O)O)n1sc2ccccc2c1=O in this assay.
output: inactive

input: # outcome recorded in this test, key = NC(=O)N1C(=O)C(C(=O)c2cc(Cl)cs2)c2cc(F)c(Cl)cc21 (stereo not drawn)
output: inactive

input: Please share the test call associated with CCN(CC)CCNc1ccc(CNC=O)c2sc3ccc(OC)cc3c(=O)c12 .
output: inactive

input: Tell me the recorded outcome of this test for CCCCCCCCCCCCc1ccccc1S(=O)(=O)O .
output: active

input: Entry CC[C@H](c1ccc(O)cc1)[C@@H](CC)c1ccc(O)cc1 : call = ?
output: active

---

Tested on: Sodium/Iodide Symporter (NIS), SLC5A5 (gene 6528)
Experiment: CPHEA_Stoker_NIS_Inhibition_RAIU: CPHEA's Radioactive Iodide Uptake (RAIU) Assay for Sodium/Iodide Symporter (NIS) Inhibition, Stoker and Laws Labs (AID 2283841)
Procedure: CPHEA_Stoker_NIS is a cell-based, single-readout assay that uses hNIS-HEK293T-EPA, a novel human kidney cell line expressing human NIS, with measurements taken at 2 hours after chemical dosing in a 96-well plate. […] A parallel cytoxicity assay (Cell Titer Glo, Promega) was also run in the same cell line.CPHEA_Stoker_NIS_Inhibition_RAIU is one of 2 assay components measured from the CPHEA_Stoker_NIS assay. […]
Records with an inconclusive call do not appear. The source made the active and inactive calls. How the source made its calls: active means hit-call score of the fitted dose curve at least 0.9, where 1 is the maximum; inconclusive means response in the unintended direction; inactive means score below 0.9.
Would you mind answering with one of these outcomes? active, inactive

input: Could you kindly confirm the outcome this assay logged for Oc1cc2ccccc2c2ccccc12 ?
output: inactive

input: What call does the record list for FC(F)(I)C(F)(F)C(F)(F)C(F)(F)C(F)(F)C(F)(F)I ?
output: active

input: Look up the recorded call for CCC(=C(c1ccc(O)cc1)c1ccc(OCCN(C)C)cc1)c1ccccc1 in this test.
output: inactive

input: What was the test verdict on NC(=O)N1C(=O)C(C(=O)c2cc(Cl)cs2)c2cc(F)c(Cl)cc21 (stereo unspecified) ?
output: inactive

input: Given CCc1ccc(CCOc2ccc(CC3SC(=O)NC3=O)cc2)nc1 (stereo unspecified) , state the outcome it received in this test.
output: inactive

input: Please share the test call associated with O=C(O)Cc1cc(I)c(Oc2cc(I)c(O)c(I)c2)c(I)c1 .
output: inactive

input: What did this assay record as the result for ClC1=C(Cl)C(Cl)(Cl)C(Cl)=C1Cl ?
output: active

input: Any idea what this test logged for CC1=C(/C=C/C(C)=C/C=C/C(C)=C/C(=O)O)C(C)(C)CCC1 ?
output: inactive

input: # outcome recorded in this test, key = CCCCCCCCCCCCCC[N+](C)(C)C
output: active

input: What classification did O=C(O)c1ccccc1C(c1ccc(O)cc1)c1ccc(O)cc1 end up with in this test?
output: inactive

input: Fill in: this test's call for OCCC(F)(F)C(F)(F)C(F)(F)C(F)(F)C(F)(F)C(F)(F)F is ___
output: inactive
